# Test system: ADP-induced thrombocyte aggregation
# assay.procedure: ADP-induced thrombocyte aggregation, donor human thrombocyte enriched plasm
# Format: cell-based
# test.conditions: 5.0 mmol/L; ADP inductor; human thrombocyte plasm
quantity.name: MA, % (%)

INSERT INTO measurements (molecule, quantity_name, endpoint_result) VALUES
  ('COc1ccc(CN2CCN(C(=N)NC(=N)N)CC2)c(OC)c1OC.Cl', 'MA, %', 1.7),
  ('COc1ccc(C(=O)N2CCN(C(=N)NC(=N)N)CC2)c(OC)c1OC.Cl', 'MA, %', 3.1),
  ('COc1cc(C(=O)N2CCN(C(=N)N)CC2)cc(OC)c1OC.O=C(O)/C=C/C(=O)O', 'MA, %', 1.3),
  ('O=C(O)/C=C/c1ccc(Cn2ccnc2)cc1 [Ozagrel, reference compound]', 'MA, %', 9.6);

----------
# System: Ristocetin-induced thrombocyte aggregation
# assay.procedure: Ristocetin-induced thrombocyte aggregation, donor human thrombocyte enriched plasm
# Assay type: cell-based
# test.conditions: 0.5 mmol/L; ristocetin inductor
Recorded (MAx-MA0): MA0 * 100% values for a group of molecules are listed next.
quantity.name: (MAx-MA0): MA0 * 100% (%)

INSERT INTO assay_data (molecule, value_unit, endpoint_result) VALUES
  ('COc1cc(C(=O)N2CCN(C(=N)N)CC2)cc(OC)c1OC.O=C(O)/C=C/C(=O)O', '%', 1.8),
  ('COc1ccc(CN2CCN(C(=N)N)CC2)c(OC)c1OC.O=C(O)/C=C/C(=O)O', '%', 16.1),
  ('COc1ccc(CN2CCN(CC(O)CS(=O)(=O)[O-])CC2)c(OC)c1OC.[Na+] (stereo not shown)', '%', 6.1),
  ('Cl.N=C(N)N1CCN(S(=O)(=O)c2cc(Cl)c(Cl)cc2Cl)CC1', '%', 22.5);

----------
Recorded inhibition at 1250 µM values for a group of molecules are listed next.
# System: Collagen-induced thrombocyte aggregation
# assay.procedure: Collagen-induced thrombocyte aggregation, donor human thrombocyte enriched plasm
# Format: cell-based
# test.conditions: Homo sapiens; 1.25 mmol/L; collagen inductor; read-out: (MA0-MAx): MA0 * 100%
quantity.name: inhibition at 1250 µM (%)

INSERT INTO measurements (molecule, value_unit, endpoint_result) VALUES
  ('COc1cc(C(=O)N2CCN(C(=N)N)CC2)cc(OC)c1OC.O=C(O)/C=C/C(=O)O [Example 1, fumarate hemihydrate]', '%', 18.8),
  ('O=C(O)/C=C/c1ccc(Cn2ccnc2)cc1 [Ozagrel, reference compound]', '%', 16.4),
  ('COc1ccc(CN2CCN(C(=N)NC(=N)N)CC2)c(OC)c1OC.Cl [Example 4, hydrochloride]', '%', 22.1),
  ('COc1ccc(C(=O)N2CCN(C(=N)NC(=N)N)CC2)c(OC)c1OC.Cl [Example 2, hydrochloride]', '%', 17.9);

----------
# Test system: Collagen-induced thrombocyte aggregation
# assay.procedure: Collagen-induced thrombocyte aggregation, donor human thrombocyte enriched plasm
# Type: cell-based
# test.conditions: 0.5 mmol/L; collagen inductor; human thrombocyte plasm
# Protocol: The study of antiaggregant and anticoagulant properties of N,N′-substituted piperazines on the sample of donor human blood. The blood was collected by donor ulnar vein punction with dry sharp needle without syringe. […] The study of anticoagulant activity was done within 2 h after thrombocyte enriched plasm obtaining. […] The concentration of thrombocytes was measured on SOLAR AR 2110 analyzer. […]
Recorded MA, % values for a group of molecules are listed next.
quantity.name: MA, % (%)

INSERT INTO assay_data (molecule, quantity_name, value_unit, endpoint_result) VALUES
  ('CCOc1ccc(CN2CCN(C(=N)N)CC2)c(OCC)c1OCC.Cl', 'MA, %', '%', 74.5),
  ('COc1cc(CN2CCN(C(=N)N)CC2)ccc1OCC(C)C.Cl', 'MA, %', '%', 71.9),
  ('Cl.N=C(N)N1CCN(S(=O)(=O)c2cc(Cl)c(Cl)cc2Cl)CC1', 'MA, %', '%', 72.1),
  ('COc1cc(C(=O)N2CCN(C(=N)N)CC2)cc(OC)c1OC.O=C(O)/C=C/C(=O)O', 'MA, %', '%', 70.0),
  ('COc1ccc(C(=O)N2CCN(C(=N)NC(=N)N)CC2)c(OC)c1OC.Cl', 'MA, %', '%', 73.0),
  ('COc1ccc(CN2CCN(C(=N)N)CC2)c(OC)c1OC.O=C(O)/C=C/C(=O)O', 'MA, %', '%', 72.3),
  ('O=C(O)/C=C/c1ccc(Cn2ccnc2)cc1 [Ozagrel, reference compound]', 'MA, %', '%', 74.3);

----------
# System: thrombocyte depleted plasm coagulation
# assay.procedure: Activated partial thromboplastin time (APTT), anticoagulant properties
# Format: biochemical, human
# test.conditions: 4.1 mmol/L
Recorded (APTTx-APTT0): APTT0 * 100% values for a group of compounds are listed next.
quantity.name: (APTTx-APTT0): APTT0 * 100% (%)

INSERT INTO assay_data (compound, target_or_test_system, endpoint_result) VALUES
  ('COc1cc(CN2CCN(C(=N)N)CC2)ccc1OCC(C)C.Cl', 'thrombocyte depleted plasm coagulation', 53.3),
  ('COc1cc(C(=O)N2CCN(C(=N)N)CC2)cc(OC)c1OC.O=C(O)/C=C/C(=O)O', 'thrombocyte depleted plasm coagulation', 56.8),
  ('O=C(O)/C=C/c1ccc(Cn2ccnc2)cc1 [Ozagrel, reference compound]', 'thrombocyte depleted plasm coagulation', 10.0),
  ('CCOc1ccc(CN2CCN(C(=N)N)CC2)c(OCC)c1OCC.Cl', 'thrombocyte depleted plasm coagulation', 35.6),
  ('COc1ccc(CN2CCN(C(=N)N)CC2)c(OC)c1OC.O=C(O)/C=C/C(=O)O', 'thrombocyte depleted plasm coagulation', 89.4);

----------
# Test system: thrombocyte depleted plasm coagulation
# assay.procedure: Activated partial thromboplastin time (APTT), anticoagulant properties
# Assay type: biochemical, human
# test.conditions: 4.1 mmol/L; thrombocyte depleted plasm
Recorded APTT values for a group of compounds are listed next.
quantity.name: APTT (s)

INSERT INTO results (compound, value_unit, endpoint_result) VALUES
  ('CCOc1ccc(CN2CCN(C(=N)N)CC2)c(OCC)c1OCC.Cl', 's', 76.5),
  ('COc1cc(CN2CCN(C(=N)N)CC2)ccc1OCC(C)C.Cl', 's', 70.2),
  ('O=C(O)/C=C/c1ccc(Cn2ccnc2)cc1 [Ozagrel, reference compound]', 's', 53.1),
  ('COc1cc(C(=O)N2CCN(C(=N)N)CC2)cc(OC)c1OC.O=C(O)/C=C/C(=O)O', 's', 70.4),
  ('COc1ccc(CN2CCN(C(=N)N)CC2)c(OC)c1OC.O=C(O)/C=C/C(=O)O', 's', 91.1);

----------
# Tested on: ADP-induced thrombocyte aggregation
# assay.procedure: ADP-induced thrombocyte aggregation, donor human thrombocyte enriched plasm
# Format: cell-based
# test.conditions: 1.25 mmol/L; ADP inductor; human thrombocyte plasm
quantity.name: MA, % (%)

INSERT INTO results (molecule, quantity_name, value_unit, endpoint_result) VALUES
  ('COc1cc(C(=O)N2CCN(C(=N)N)CC2)cc(OC)c1OC.O=C(O)/C=C/C(=O)O', 'MA, %', '%', 4.1),
  ('COc1ccc(C(=O)N2CCN(C(=N)NC(=N)N)CC2)c(OC)c1OC.Cl', 'MA, %', '%', 15.0),
  ('COc1ccc(CN2CCN(C(=N)NC(=N)N)CC2)c(OC)c1OC.Cl', 'MA, %', '%', 10.6),
  ('Cl.N=C(N)N1CCN(S(=O)(=O)c2cc(Cl)c(Cl)cc2Cl)CC1', 'MA, %', '%', 4.7),
  ('COc1cc(CN2CCN(C(=N)N)CC2)ccc1OCC(C)C.Cl', 'MA, %', '%', 5.1),
  ('CCOc1ccc(CN2CCN(C(=N)N)CC2)c(OCC)c1OCC.Cl', 'MA, %', '%', 5.3),
  ('O=C(O)/C=C/c1ccc(Cn2ccnc2)cc1 [Ozagrel, reference compound]', 'MA, %', '%', 12.9),
  ('COc1ccc(CN2CCN(C(=N)N)CC2)c(OC)c1OC.O=C(O)/C=C/C(=O)O', 'MA, %', '%', 8.5);

----------
Recorded MA, % values for a group of compounds are listed next.
# System: ADP-induced thrombocyte aggregation
# assay.procedure: ADP-induced thrombocyte aggregation, donor human thrombocyte enriched plasm
# Type: cell-based
# test.conditions: 0.5 mmol/L; ADP inductor; human thrombocyte plasm
quantity.name: MA, % (%)

INSERT INTO measurements (compound, value_unit, endpoint_result) VALUES
  ('CCOc1ccc(CN2CCN(C(=N)N)CC2)c(OCC)c1OCC.Cl [Example 5]', '%', 11.5),
  ('COc1ccc(CN2CCN(C(=N)N)CC2)c(OC)c1OC.O=C(O)/C=C/C(=O)O [Example 8]', '%', 14.3),
  ('COc1cc(C(=O)N2CCN(C(=N)N)CC2)cc(OC)c1OC.O=C(O)/C=C/C(=O)O [Example 1]', '%', 5.0),
  ('Cl.N=C(N)N1CCN(S(=O)(=O)c2cc(Cl)c(Cl)cc2Cl)CC1 [Example 13]', '%', 10.3),
  ('COc1cc(CN2CCN(C(=N)N)CC2)ccc1OCC(C)C.Cl [Example 12]', '%', 11.2);
